Origin of values: PubChem BioAssay (NCI)

Tested on: SK-MEL-5 melanoma
Experiment: NCI-60 one-dose screen, 48 h (100 = growth as untreated, 0 = no growth, -100 = all killed)
Details: 10 µM unless noted
Description: Growth inhibition of the SK-MEL-5 human tumor cell line is measured as a screen for anti-cancer activity. Cells are grown in 96 well plates and exposed to the test compound for 48 hours. Compounds are tested at a single concentration, which is 10^-5 M for most compounds. The reported endpoint is percent growth (GI% or GIPRCNT), where numbers from 0 - 100% represent growth inhibition, and numbers from -100% - 0 represent cell death. For example, a value of 40 represents 60% growth inhibition. […]
Compounds without any hit were thinned out: in the full panel of roughly 83,000, 20% have a hit.
measurementLabel: growth (%)
Answers are plain numbers, in %.

Past entries and their recorded results:
[Q] # input compound: Nc1n[nH]c2cccc(C#Cc3cccc(C(=O)Nc4cc(CN5CCOCC5)cc(C(F)(F)F)c4)c3)c12 ; wanted: its growth
[A] 29

[Q] If you can, please state the reported growth value of COc1cc(C2C3=C(COC3=O)N(CCO)c3cc4c(cc32)OCO4)cc(OC)c1OC (stereo not drawn) .
[A] -42.2

[Q] Fill in: growth of CC1(C)CC(O)CCCCCCOc2c(CN)cccc2NC(=O)c2nc(cnc2N)-c2ccc(cc2)S1(=O)=O (stereo not drawn) is ___
[A] -31.7

[Q] For the compound shown here, CCCCCC(=O)Oc1ccc(/C(=C(/C)Cc2ccc(OC)cc2)c2ccc(OCCCN(C)C)cc2)cc1 , give the reported growth.
[A] 63.5

[Q] Looking for the measured growth of C=C1C(=O)O[C@H]2[C@H]1CC/C(CNC(=O)/C=C/c1cccc(OC)c1)=C\CC[C@@]1(C)O[C@@H]21 , can you help?
[A] 67.8

[Q] Which growth is listed for O=C(/C(=C/c1ccc([N+](=O)[O-])cc1)SCc1ccc(F)cc1)c1ccc(F)cc1 ?
[A] 95.4

[Q] Reported growth for Cc1cc(C)c(S(=O)(=O)Oc2ccccc2[N+](=O)[O-])c(C)c1 : what is it?
[A] 6.18

[Q] GET /values?readout=growth&item= CC(=O)OC[C@]12CC[C@@H](C(=O)CBr)[C@@H]1[C@H]1CC[C@@H]3[C@@]4(C)CC[C@H](OC(C)=O)C(C)(C)[C@@H]4CC[C@@]3(C)[C@]1(C)CC2
[A] 75.1

Would you mind listing growth for each of the following compounds?
1. OC(c1ccc(F)c(C(F)(F)F)c1)c1cnccc1NC1CCCCC1 (stereo not drawn)
2. Cc1nc(N)nc(N[C@@H](C)c2nc3cccc(NCc4ccc(C(=O)NO)cc4)c3c(=O)n2-c2ccccc2)n1
3. CC(C)=CCC[C@](C)(O)[C@H]1CC[C@]2(C)[C@@H]1CC[C@@H]1[C@@]3(C)C/C(=C/c4ccccc4)C(=O)C(C)(C)[C@@H]3CC[C@]12C
4. S=c1cc(S)c2cc(Br)ccc2[nH]1

[A]
[49.4, 77.3, 98.7, 89]

List growth for every entry below, keeping the order given.
1. COc1cc(F)c(/C=C/c2cc(/C=C/c3cc(OC)c(OC)cc3F)on2)cc1OC
2. COc1ccccc1NC(=O)C1CC(c2ccc(F)cc2)=NO1 (stereo not drawn)
3. NS(=O)(=O)c1ccc(CCN2C(=O)C3C(C2=O)C2(Cl)C(Cl)=C(Cl)C3(Cl)C2(Cl)Cl)cc1 (stereo not drawn)
4. Cc1ccc(-n2c3c(c(-c4ccccc4)c2-c2ccccc2)C2=NCCN2C=N3)cc1
5. O=C(Nc1ccccc1C(=O)N/N=C(\c1ccccc1)c1ccccn1)c1ccc(F)cc1
6. CC(=O)O[C@H]1Cc2c([nH]c3ccccc23)[C@@H](c2ccc(Cl)cc2)N1C(=O)CCNC(C)(C)C

[A]
[91.9, 95.3, 92.9, 68.1, -7.66, -79.5]
